Each recorded value in this set is attributed to patent US20240228488A1.

Biological target: human activated kallikrein enzyme (Homo sapiens, UniProt P03952)
Sequence (P03952 391-638 limits assumed): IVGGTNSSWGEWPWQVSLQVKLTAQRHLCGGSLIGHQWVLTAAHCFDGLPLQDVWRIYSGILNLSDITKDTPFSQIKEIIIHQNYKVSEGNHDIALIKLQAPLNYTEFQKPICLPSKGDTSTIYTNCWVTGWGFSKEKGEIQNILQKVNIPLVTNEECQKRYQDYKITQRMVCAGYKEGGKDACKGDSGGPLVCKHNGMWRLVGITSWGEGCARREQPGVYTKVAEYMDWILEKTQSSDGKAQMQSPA
Sequence (P03952 20-390 partner limits assumed): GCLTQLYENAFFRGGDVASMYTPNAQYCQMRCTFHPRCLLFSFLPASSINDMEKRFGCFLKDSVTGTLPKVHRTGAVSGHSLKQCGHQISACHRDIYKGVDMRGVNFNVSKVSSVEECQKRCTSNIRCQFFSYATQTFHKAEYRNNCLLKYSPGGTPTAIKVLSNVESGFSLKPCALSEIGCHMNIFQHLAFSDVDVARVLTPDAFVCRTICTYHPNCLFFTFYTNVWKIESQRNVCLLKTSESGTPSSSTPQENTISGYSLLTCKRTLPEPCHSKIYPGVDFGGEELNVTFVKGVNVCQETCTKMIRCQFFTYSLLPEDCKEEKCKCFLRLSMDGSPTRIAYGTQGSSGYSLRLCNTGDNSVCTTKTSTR
Assay: Plasma kallikrein inhibition, fluorogenic PFR-AMC substrate, 500 pM activated kallikrein format
Type: biochemical
Conditions: 500 pM activated kallikrein, 300 uM PFR-AMC, 30 min preincubation, 10 min reaction; read-out: Primary Dose Response Assay: Average EC50
pEC50: −log10 of the molar value.
metric: pEC50

1) CNC(=O)c1cc(C2CC2)cn2cc(CNc3cc(NC(=O)[C@H]4C[C@@H]4c4cccc(Cl)c4)ncn3)nc12 :: 8.00 to 9.00
2) Cc1ccnc([C@H]2C[C@@H]2C(=O)Nc2cc(CCc3cn4cc(C5CC5)cc(N5CC(=O)N(C)C5=O)c4n3)ccn2)n1 :: > 9.00
3) CN1C(=O)CN(c2cc(C3CC3)cn3cc(CNc4cc(NC(=O)[C@H]5C[C@@H]5c5nccc(Cl)n5)ncn4)nc23)C1=O (racemic) :: > 9.00
4) CC1OCCN(c2cc(C3CC3)cn3cc(CNc4cc(NC(=O)[C@H]5C[C@@H]5c5cccc(Cl)c5)ncn4)nc23)C1=O (relative stereo) :: 8.00 to 9.00
5) O=C(Nc1cc(NCc2cn3cc(C4CC4)cc(N4CCN5CCCC5C4)c3n2)ncn1)[C@H]1C[C@@H]1c1cccc(Cl)c1 (stereo partly shown) :: > 9.00
6) O=C(Nc1cc(N2C[C@@H](O)C[C@@H]2c2cn3cc(C4CC4)ccc3n2)ncn1)[C@H]1C[C@@H]1c1cc(Cl)ccn1 (single isomer, unassigned; isomer 2) [Example I-249] :: 8.00 to 9.00
7) O=C(Nc1cc(NCc2cn3cc(C4CC4)cc(N4CCN5CCC4C5)c3n2)ccn1)[C@H]1C[C@@H]1c1cccc(Cl)c1 (stereo partly shown) :: > 9.00
8) O=C(Nc1cc(NCc2cn3cc(C4CC4)ccc3n2)ccn1)[C@H]1C[C@@H]1c1cc(Cl)ncn1 (racemic) :: 6.00 to 7.00
9) Cc1ccnc([C@H]2C[C@@H]2C(=O)Nc2nc(NCc3cn4cc(C5CC5)cc(N5CC(=O)N(C)C5=O)c4n3)nc(C3CC3)n2)n1 (racemic) :: > 9.00
10) Cc1ccnc([C@H]2C[C@@H]2C(=O)Nc2cc(N[C@@H](C)c3cn4cc(C(F)F)cc(N5CC(=O)N(C)C5=O)c4n3)nc(C)n2)n1 :: 7.00 to 8.00
11) CN1CCC(Oc2cc(C3CC3)cn3cc(CNc4cc(NC(=O)[C@H]5C[C@@H]5c5cccc(Cl)c5)ncn4)nc23)C1=O (stereo partly shown) :: 8.00 to 9.00
12) CS(=O)(=O)c1nc(NCc2cn3cc(C4CC4)ccc3n2)cc(NC(=O)[C@H]2C[C@@H]2c2cccc(Cl)c2)n1 (racemic) :: 7.00 to 8.00
13) CC(C)(O)c1cc(C2CC2)cn2cc(CNc3ccnc(NC(=O)[C@H]4C[C@@H]4c4cccc(Cl)c4)c3)nc12 :: 8.00 to 9.00
14) O=C(Nc1cc(NCc2cn3cc(C4CC4)ccc3n2)ccn1)[C@@H]1C[C@]12C(=O)Nc1ccc(Cl)cc12 (racemic) :: 7.00 to 8.00
15) Cc1ccnc([C@H]2C[C@@H]2C(=O)Nc2cc(NCc3cn4cc(C5CC5)cc(N5CC(=O)N(C6COC6)C5=O)c4n3)ncn2)n1 :: > 9.00
16) CS(=O)(=O)c1cc(C2CC2)cn2cc(CNc3cc(NC(=O)[C@H]4C[C@@H]4c4cc(Cl)ccn4)ncn3)nc12 :: > 9.00
17) O=C(Nc1cc(NCc2cn3cc(C4CC4)ccc3n2)ccn1)[C@H]1C[C@@H]1c1ccc(Cl)s1 (racemic) :: 7.00 to 8.00
18) O=C(Nc1cc(N2C[C@@H](O)[C@@H](O)[C@@H]2c2cn3cc(C4CC4)ccc3n2)ncn1)[C@H]1C[C@@H]1c1cccc(Cl)c1 :: 6.00 to 7.00
19) O=C(O)COc1ccc(Cl)cc1[C@H]1C[C@@H]1C(=O)Nc1cc(NCc2cn3cc(C4CC4)ccc3n2)ncn1 (racemic) :: 6.00 to 7.00
20) O=C(Nc1cc(NCc2cn3cc(C4CC4)cc(C(=O)N4CCOCC4)c3n2)ncn1)[C@H]1C[C@@H]1c1cccc(Cl)c1 :: > 9.00
21) O=C1CN(c2cc(C3CC3)cn3cc(CNc4cc(NC(=O)[C@H]5C[C@@H]5c5cc(Cl)ccn5)ncn4)nc23)C(=O)N1 :: > 9.00
22) Cc1ccnc([C@H]2C[C@@H]2C(=O)Nc2ncc(CO)c(OCc3cn4cc(C5CC5)cc(N5CC(=O)N(C)C5=O)c4n3)n2)n1 :: > 9.00
23) O=C(Nc1cc(NCc2cn3cc(C4CC4)cc(C4(O)COC4)c3n2)ncn1)[C@H]1C[C@@H]1c1cccc(Cl)c1 (racemic) :: 8.00 to 9.00
24) N#Cc1ccc(Cl)cc1[C@@H]1C[C@H]1C(=O)Nc1cc(NCc2cn3cc(C4CC4)cc(CO)c3n2)ccn1 (racemic) :: > 9.00
25) CN1CC(O)(c2cc(C3CC3)cn3cc(CNc4cc(NC(=O)[C@H]5C[C@@H]5c5cccc(Cl)c5)ncn4)nc23)C1 :: > 9.00
